FYI, the data here is from the kinase profiling compilation of Christmann-Franck et al. (2016).

assayed.target: TBK1 (human) (UniProt Q9UHD2)
Sequence (Q9UHD2 whole entry, looked up): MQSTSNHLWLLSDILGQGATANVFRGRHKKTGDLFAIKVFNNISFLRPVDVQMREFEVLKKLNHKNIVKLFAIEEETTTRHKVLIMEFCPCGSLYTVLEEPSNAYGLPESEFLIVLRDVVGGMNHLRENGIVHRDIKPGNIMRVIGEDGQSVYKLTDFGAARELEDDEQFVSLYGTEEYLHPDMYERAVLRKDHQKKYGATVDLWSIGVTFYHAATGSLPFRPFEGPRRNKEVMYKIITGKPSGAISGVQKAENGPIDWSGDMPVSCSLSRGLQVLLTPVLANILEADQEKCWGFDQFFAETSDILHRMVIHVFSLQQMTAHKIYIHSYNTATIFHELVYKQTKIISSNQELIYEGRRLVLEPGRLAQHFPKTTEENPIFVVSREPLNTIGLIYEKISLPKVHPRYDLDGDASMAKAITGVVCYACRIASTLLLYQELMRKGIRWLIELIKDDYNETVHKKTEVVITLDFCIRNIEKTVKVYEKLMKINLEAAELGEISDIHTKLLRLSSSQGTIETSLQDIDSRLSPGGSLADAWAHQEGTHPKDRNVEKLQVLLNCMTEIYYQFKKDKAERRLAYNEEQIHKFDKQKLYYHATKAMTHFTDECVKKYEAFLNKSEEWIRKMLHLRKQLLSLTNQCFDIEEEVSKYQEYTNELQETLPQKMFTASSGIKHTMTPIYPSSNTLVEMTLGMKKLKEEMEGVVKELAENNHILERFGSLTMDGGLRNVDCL
protocol: radiometric filter-binding kinase assay, Kinase HotSpot
measurement.conditions: compound 0.5 µM; ATP 10 µM
residual activity below 90% gives Criterion not met; residual activity at or above it gives Criterion met.

Ask: Decide: residual activity of Clc1ccc(Nc2nnc(Cc3ccncc3)c3ccccc23)cc1 >= 90%?
Result: Criterion met

Ask: Hello, I need to know if Cc1cc2ncc(-c3ccccc3)nc2cc1C has measured residual activity not below 90%. Thanks!
Result: Criterion met

Ask: Decide: residual activity of Nc1nc(Nc2ccc(S(N)(=O)=O)cc2)nn1C(=S)Nc1c(F)cccc1F >= 90%?
Result: Criterion not met

Ask: Check the entry CS(=O)c1ccc(-c2nc(-c3ccc(F)cc3)c(-c3ccncc3)[nH]2)cc1 (configuration not stated) : does residual activity equal or exceed 90%?
Result: Criterion met

Ask: Decide: is the reported value of residual activity for Nc1nc(Nc2ccc(S(N)(=O)=O)cc2)nn1C(=O)c1c(F)cccc1F equal to or greater than 90%?
Result: Criterion not met
